assay: Quantitative High-Throughput drug screen in 47 multiple myeloma cell lines against the NCATS MIPE library collection: H1112_PLB cell viability assay (AID 1918967; note: nearly all actives have a fitted effect of over 30% in size; note: potency is the fitted concentration of half-maximal effect); conditions: H1112 myeloma cells viability, ATP luminescence, 48 h; series mostly up to 45.8 µM
Results filed as inconclusive are left out. Activity calls are given as the source filed them. Calls come from the whole dose curve; as a rule, active = well fitted cell-killing curve with a large enough effect; inconclusive = small, poorly fitted or top-dose-only effect, or effect the other way; inactive = no such curve, though single readings can be large or run the other way.
quantity name: Potency

Some solved entries appear below for comparison.
Cc1cnc(Nc2cccc(CN3CCOCC3)c2)nc1Nc1cccc(S(=O)(=O)NC(C)(C)C)c1    13.2 µM (active)
COc1cc(N2CCN(C)CC2)ccc1Nc1nc(N)c(C(=O)c2c(Cl)cccc2Cl)s1    inactive
CC(C)=CCCC(C)=CCCC(C)=CCCC(C)=CCCC(C)=CCCC(C)=CCCC(C)=CCCC(C)=CCCC(C)=CCO    inactive
COc1cc2nc(-c3cc(F)ccc3O)nc(N[C@@H]3CNC[C@@H]3C(C)(C)O)c2cc1OC    14.8 µM (active)

Now let's try a different one.
I have this compound here, CCN(CCO)CCCOc1ccc2c(Nc3cc(CC(=O)Nc4cccc(F)c4)[nH]n3)ncnc2c1 , and I need its recorded Potency. inactive
